Provenance of the data: patent US20220389003A1

- STUDY_SYSTEM: PARG (Homo sapiens, UniProt Q86W56)
- Sequence (Q86W56 whole entry): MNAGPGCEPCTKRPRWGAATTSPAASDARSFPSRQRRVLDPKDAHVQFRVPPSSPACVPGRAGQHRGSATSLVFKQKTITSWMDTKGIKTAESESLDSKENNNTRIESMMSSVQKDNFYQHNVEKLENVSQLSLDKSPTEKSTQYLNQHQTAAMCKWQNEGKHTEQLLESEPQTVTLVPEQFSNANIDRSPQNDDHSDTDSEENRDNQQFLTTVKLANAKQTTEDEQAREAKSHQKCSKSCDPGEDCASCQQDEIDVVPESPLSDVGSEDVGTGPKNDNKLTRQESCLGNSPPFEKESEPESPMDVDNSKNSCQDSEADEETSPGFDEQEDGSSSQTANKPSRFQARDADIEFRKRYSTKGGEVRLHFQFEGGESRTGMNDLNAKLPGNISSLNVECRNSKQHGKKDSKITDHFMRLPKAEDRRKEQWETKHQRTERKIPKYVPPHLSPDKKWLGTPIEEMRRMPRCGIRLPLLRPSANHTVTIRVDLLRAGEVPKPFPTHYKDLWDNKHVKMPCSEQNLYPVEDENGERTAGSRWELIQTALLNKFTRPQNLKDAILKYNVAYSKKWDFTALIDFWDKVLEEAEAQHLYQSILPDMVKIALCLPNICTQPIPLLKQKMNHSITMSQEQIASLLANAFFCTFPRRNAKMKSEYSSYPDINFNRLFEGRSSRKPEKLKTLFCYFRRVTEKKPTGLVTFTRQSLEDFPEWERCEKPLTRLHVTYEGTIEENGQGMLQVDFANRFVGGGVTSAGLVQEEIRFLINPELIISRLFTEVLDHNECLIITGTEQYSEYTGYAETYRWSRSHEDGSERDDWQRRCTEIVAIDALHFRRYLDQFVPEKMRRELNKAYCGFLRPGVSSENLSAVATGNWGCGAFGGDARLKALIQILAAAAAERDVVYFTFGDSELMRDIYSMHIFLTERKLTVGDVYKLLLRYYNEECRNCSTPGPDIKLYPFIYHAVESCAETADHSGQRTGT
- RUN_DESCRIPTION: Inhibition of PARG enzymatic assay (TR-FRET enzymatic IC50 assay)
- Type: biochemical
- Parameters: purchased Peak Proteins
- CONDITION_SUMMARY: hPARG 250 pM, biotinylated-PARylated PARP substrate 30 nM
Here, each record is paired with measured IC50 data.

1. CN1CC2(CCN(c3cc(S(=O)(=O)NC4(C#N)CC4)cc4c3cnn4-c3nnc(C(F)F)s3)CC2)C1 :: 300 to 1000 nM
2. N#CC1(NS(=O)(=O)c2cc(-c3cnccn3)c3cnn(-c4nnc(C(F)F)s4)c3c2)CC1 :: 100 to 300 nM
3. N#CC1(NS(=O)(=O)c2cc(-c3ccncn3)c3cnn(-c4nnc(C(F)F)s4)c3c2)CC1 :: ≤ 100 nM
4. N#CC1(NS(=O)(=O)c2cc(N3CCN(c4cccnc4)CC3)c3cnn(-c4nnc(C(F)F)s4)c3c2)CC1 :: 300 to 1000 nM
5. CN(C)C(=O)c1ccc(-c2cc(S(=O)(=O)NC3(C#N)CC3)cc3c2cnn3-c2nnc(C(F)F)s2)cc1 :: 100 to 300 nM
6. Cn1cnnc1N1CCN(c2cc(S(=O)(=O)NC3(C#N)CC3)cc3c2cnn3-c2nnc(C(F)F)s2)CC1 :: ≤ 100 nM

Turning now to a further record.
Query string: // map C[C@@H]1CN(c2cc(S(=O)(=O)NC3(C#N)CC3)cc3c2cnn3-c2nnc(C(F)F)s2)CCO1 to recorded IC50 (system: PARG (Homo sapiens, UniProt Q86W56))
Result string: ≤ 100 nM
